target or test system: TEC (Homo sapiens, UniProt P42680)
Sequence (P42680 whole entry): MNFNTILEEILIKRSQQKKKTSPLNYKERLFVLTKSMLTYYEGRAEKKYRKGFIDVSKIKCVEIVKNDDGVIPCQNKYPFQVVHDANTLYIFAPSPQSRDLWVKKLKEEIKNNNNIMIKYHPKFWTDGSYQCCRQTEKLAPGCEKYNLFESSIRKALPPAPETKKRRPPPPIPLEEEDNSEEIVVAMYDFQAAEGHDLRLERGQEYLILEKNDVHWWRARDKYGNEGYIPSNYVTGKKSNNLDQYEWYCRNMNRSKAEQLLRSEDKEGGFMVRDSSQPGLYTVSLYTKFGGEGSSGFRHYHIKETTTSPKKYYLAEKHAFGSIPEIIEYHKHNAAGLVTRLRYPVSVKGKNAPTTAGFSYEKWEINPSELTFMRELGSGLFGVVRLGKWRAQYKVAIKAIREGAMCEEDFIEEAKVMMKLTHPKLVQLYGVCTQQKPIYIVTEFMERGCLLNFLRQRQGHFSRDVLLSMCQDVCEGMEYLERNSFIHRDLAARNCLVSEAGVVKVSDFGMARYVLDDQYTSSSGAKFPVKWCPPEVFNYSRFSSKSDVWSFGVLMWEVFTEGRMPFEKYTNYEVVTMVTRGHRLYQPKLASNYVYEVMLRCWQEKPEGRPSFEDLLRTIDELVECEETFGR
test summary: Inhibition of a panel of kinases, in vitro HotSpot kinase assay: TEC
Format: biochemical
study conditions: D-compounds panel data; 1 μM ATP
pIC50: −log10 of the molar value.
Overview of recorded pIC50 for various molecules

molecule | pIC50
C[C@@H]1[C@H](NC(=O)c2ccc(C3CC3)cc2)CCCN1c1cnc(C(N)=O)c(Nc2cnn(C3CCC(F)(F)CC3)c2)n1 [Example D-307] | 7.00 to 8.00
C[C@@H]1[C@H](NC(=O)c2ccc(C(C)(C)C)cn2)CCCN1c1cnc(C(N)=O)c(Nc2cnn(C)c2)n1 [Example D-208] | 7.00 to 8.00
C[C@@H]1[C@H](NC(=O)c2ccc(C(C)(C)O)nc2)CCCN1c1cnc(C(N)=O)c(Nc2cnn(C)c2)n1 [Example D-40] | ≥ 8.00
